Measured melting point by item
Give just the number in °C; leave the unit off.

Solved cases below.
CCCC1=C(C(=O)OCC)C(c2cccc3nonc23)c2c[nH]nc2N1 (stereo not drawn) [Example 76]; 207
N#CC1=C(c2cccs2)Nc2n[nH]cc2C1c1cccc2ccccc12 (stereo not drawn) [Example 246]; 214
CCOC(=O)C1=C(c2ccccc2)Nc2n[nH]cc2C1c1ccccc1Cl (stereo not drawn) [Example 85]; 214
N#CC1=C(c2ccccc2)Nc2n[nH]cc2C1c1ccccc1Cl (stereo not drawn) [Example 142]; 158

Please list melting point recorded for the molecule CCCC1=C(C(=O)OCC)C(c2ccccc2OC2CCCC2)c2c[nH]nc2N1 (stereo not drawn) [Example 37]
195

###

// values below are reported melting point
Give the quantity in °C, number only.

CCCC1=C(C(=O)OCC)C(c2ccccc2C#N)c2c[nH]nc2N1 (stereo not drawn) [Example 42]; 211
COc1ccc(C2=C(C#N)C(c3ccccc3OC)c3c[nH]nc3N2)cc1 (stereo not drawn) [Example 153]; 149
CCCC1=C(C(=O)OCC)C(c2cccc3nonc23)c2c[nH]nc2N1 (single isomer, unassigned; (+)) [Example 116]; 159

Supply measured melting point of CCCC1=C(C#N)C(c2ccccc2C#N)c2c[nH]nc2N1 (stereo not drawn) [Example 133] in your reply.
218

Look up and state reported melting point for CCCC1=C(C(=O)OCC)C(c2ccccc2Cl)c2cnn(C(=O)c3ccccc3)c2N1 (stereo not drawn) [Example 210]
115

Name the recorded melting point of the molecule listed here: CC1=C(C(=O)OCc2ccccc2)C(c2ccccc2Cl)c2c[nH]nc2N1 (stereo not drawn) [Example 7]
234

Return melting point (reported value) for this molecule: N#CC1=C(C2CCCCC2=O)Nc2n[nH]cc2C1c1cccc(C#N)c1Br (stereo not drawn) [Example 1062]
273

Specify reported melting point for the molecule shown: COC(CC1=C(C#N)C(c2cccc3nonc23)c2c[nH]nc2N1)OC (stereo not drawn) [Example 329]
115

Provide melting point value for the following molecule: CCCC1=C(C#N)C(c2cccc(Cl)c2Cl)c2c[nH]nc2N1 (stereo not drawn) [Example 134]
242

# return recorded melting point for entry N#CC1=C(c2c[nH]c3ccccc23)Nc2n[nH]cc2C1c1cccc2nonc12 (stereo not drawn) [Example 335]
238

Quickly give me recorded melting point for N#CC1=C(c2ccc(Br)s2)Nc2n[nH]cc2C1c1cccc2nonc12 (stereo not drawn) [Example 291]
208

###

melting point overview

CCOC(=O)C1=C(Cc2ccccc2)Nc2n[nH]cc2C1c1ccccc1Cl (stereo not drawn); 247 °C
N#CC1=C(C2CC2)Nc2n[nH]cc2C1c1ccccc1[N+](=O)[O-] (stereo not drawn); 236 to 238 °C (dec.)
CN(C)CCC1=C(C#N)C(c2cccc3nonc23)c2c[nH]nc2N1 (stereo not drawn); 215 °C
CC(C)(C)C1=C(C#N)C(c2cccc3nonc23)c2c[nH]nc2N1 (stereo not drawn); 204 °C
CN1CCC(C2=C(C#N)C(c3cccc(C#N)c3Br)c3c[nH]nc3N2)CC1 (stereo not drawn); > 270 °C
CCCC1=C(C(=O)OCC)C(c2cc(Cl)ccc2Cl)c2c[nH]nc2N1 (stereo not drawn); 162 °C

Check the records and state melting point for CCCC1=C(C(=O)OCC)C(c2cccc3ccccc23)c2c[nH]nc2N1 (stereo not drawn)
182 °C

Provide only the value of recorded melting point for CC(=O)N1CCC(C2=C(C#N)C(c3cccc(C#N)c3Br)c3c[nH]nc3N2)CC1 (stereo not drawn)
> 280 °C

Supply recorded melting point for CCCC1=C(C(=O)OCC)C(c2ccnc3ccccc23)c2c[nH]nc2N1 (stereo not drawn) here.
198 °C
